# Tested on: Mycolicibacterium smegmatis
# METHOD_NOTES: Antimycobacterial activity against Mycobacterium smegmatis str. MC2 155 ATCC 700084 assessed as inhibition of mycobacterial growth incubated for 24 hrs by MABA method
# Type: functional
# MEASUREMENT_PARAMETERS: MC2 155 ATCC 700084, 24 h
Listed molecules paired with reported MIC
Supply the numeric figure in µg/mL, leaving out any unit text.

Returns the measured MIC for the input molecule. Input: Cc1cc(CN2CCN(c3ccccc3)CC2)c(C)n1-c1ccc(Cl)cc1
32

For Cc1cc(CNCc2ccccc2)c(C)n1-c1ccc(Cl)cc1 , what is its reported MIC?
4

Would you mind telling me what MIC value was observed for Cc1cc(CNC2CCCCC2)c(C)n1-c1ccc(Cl)cc1 ?
8

====

# METHOD_NOTES: Selectivity index, ratio of GIC50 for cytotoxicity against human THP1 cells to MIC for Mycobacterium tuberculosis H37Rv ATTC 27294
# Format: toxicity, cell-based, THP-1
# MEASUREMENT_PARAMETERS: read-out: Selectivity Index
MEASUREMENT_NAME: selectivity ratio
Reply with the value as a number alone.

- COMPOUND: "Cc1cc(CN2CCN(C3C4CC5CC(C4)CC3C5)CC2)c(C)n1-c1ccc(Cl)cc1 (stereo not given)"
  selectivity ratio: 4.1

Quick check: selectivity ratio of Cc1c(CNC2CCCCC2)cc(-c2ccc(Cl)cc2)n1-c1ccc(Cl)cc1 ?
0.5

====

# Test system: Mycolicibacterium smegmatis
# METHOD_NOTES: Antimycobacterial activity against Mycobacterium smegmatis str. MC2 155 ATCC 700084 assessed as inhibition of mycobacterial growth incubated for 24 hrs by MABA method
# Format: functional
# MEASUREMENT_PARAMETERS: MC2 155 ATCC 700084, 24 h
MEASUREMENT_NAME: log10 MIC (log10 of the value in µg/mL)
Friendly reminder: values = log10 of MIC, unit µg/mL.

Reference set, count: 5
- MOLECULE: "Cc1ccc(CNCc2cc(C)n(-c3ccc(Cl)cc3)c2C)cc1"
  NUMERIC_READOUT: 0.90
- MOLECULE: "Cc1c(CNC2CCCCC2)cc(-c2ccc(Cl)cc2)n1-c1ccc(Cl)cc1"
  NUMERIC_READOUT: 0.60
- MOLECULE: "Cc1c(CN2CCN(C3CC4CCC3C4)CC2)cc(-c2ccc(Cl)cc2)n1-c1ccc(Cl)cc1 (mixture of isomers)"
  NUMERIC_READOUT: 1.81
- MOLECULE: "Cc1cc(CN2CCN(C3C4CC5CC(C4)CC3C5)CC2)c(C)n1-c1ccccc1F (centres undefined)"
  NUMERIC_READOUT: 1.11
- MOLECULE: "Cc1cc(CN2CCN(C3C[C@@H]4CC[C@H]3C4)CC2)c(C)n1-c1ccc(Cl)cc1 (mixture of isomers)"
  NUMERIC_READOUT: 1.43

Can you look up the measured log10 MIC of Cc1c(CNCc2ccccc2)cc(-c2ccc(Cl)cc2)n1-c1ccc(Cl)cc1 for me?
0.90

Fill in: log10 MIC of Cc1cc(CNCc2ccc(Cl)cc2)c(C)n1-c1ccc(Cl)cc1 is ___
0.60

Value lookup for log10 MIC; key = Cc1c(CN2CCN(C)CC2)cc(-c2ccc(Cl)cc2)n1-c1ccc(Cl)cc1
1.40

====

Reported GI50 at 48 h values are given for each entry in this list.
# METHOD_NOTES: Cytotoxic activity against mouse RAW264.7 cells assessed as reduction in cell viability incubated for 48 hrs by […] based assay
// return numeric value only (unit: µg/mL, not printed)

Use these answered entries as a reference point.
- COMPOUND: "Cc1c(CN2CCN(c3ccccc3)CC2)c(CN2CCN(c3ccccc3)CC2)c(C)n1-c1ccc(Cl)cc1"
  GI50 at 48 h (µg/mL): 500
- COMPOUND: "Cc1cc(CN2CCN(C3C4CC5CC(C4)CC3C5)CC2)c(C)n1-c1ccc(Cl)cc1 (centres undefined)"
  GI50 at 48 h (µg/mL): 5.7
- COMPOUND: "Cc1c(CN2CCN(C34CC5CC(CC(C5)C3)C4)CC2)cc(-c2ccc(Cl)cc2)n1-c1ccc(Cl)cc1"
  GI50 at 48 h (µg/mL): 23
- COMPOUND: "Cc1cccc(-n2c(C)cc(CN3CCN(C4C5CC6CC(C5)CC4C6)CC3)c2C)c1 (centres undefined)"
  GI50 at 48 h (µg/mL): 22
- COMPOUND: "Cc1cc(CNCc2ccc(Cl)cc2)c(C)n1-c1ccc(Cl)cc1"
  GI50 at 48 h (µg/mL): 0.1
- COMPOUND: "Cc1cc(/C=N\\OCc2ccccc2)c(C)n1-c1ccc(Cl)cc1"
  GI50 at 48 h (µg/mL): 128
- COMPOUND: "Cc1cc(CNC2CCCCC2)c(C)n1-c1ccc(Cl)cc1"
  GI50 at 48 h (µg/mL): 10
- COMPOUND: "Cc1cc(CNOCc2ccccc2)c(C)n1-c1ccc(Cl)cc1"
  GI50 at 48 h (µg/mL): 133
- COMPOUND: "Cc1cc(CNCc2ccc(F)cc2)c(C)n1-c1ccc(Cl)cc1"
  GI50 at 48 h (µg/mL): 26
- COMPOUND: "Cc1ccc(CNCc2cc(C)n(-c3ccc(Cl)cc3)c2C)cc1"
  GI50 at 48 h (µg/mL): 0.1

Proceeding to the next compound to report its GI50 at 48 h.
Which GI50 at 48 h is listed for Cc1c(CN2CCN(C)CC2)cc(-c2ccc(Cl)cc2)n1-c1ccc(Cl)cc1 ?
19

====

Reported Activity values for the following molecules.
# Tested on: Mycolicibacterium aurum
# METHOD_NOTES: Inhibition of multidrug resistance efflux pump in Mycobacterium aurum ATCC 23366 assessed as inhibition of ethidium bromide efflux by measuring relative fluorescence units for ethidium bromide accumulation at 1/4 times MIC incubated for 60 mins by fluorimetric assay
Only the number, expressed in RFU, is required.

Some molecules with recorded Activity:
- MOLECULE: "Cc1cc(CNOCc2ccccc2)c(C)n1-c1ccc(F)cc1"
  Activity [RFU]: 4
- MOLECULE: "Cc1c(CN2CCN(C3C4CC5CC(C4)CC3C5)CC2)cc(-c2ccc(Cl)cc2)n1-c1ccc(Cl)cc1 (stereo unspecified)"
  Activity [RFU]: 0

Give Mycolicibacterium aurum Activity for Cc1cc(CNCc2ccc(Cl)cc2)c(C)n1-c1ccc(Cl)cc1
2

Value wanted: Activity (Mycolicibacterium aurum) of entry Cc1cc(CN2CCN(C3CCCCC3)CC2)c(C)n1-c1ccc(Cl)cc1
4

Missing value: Activity, Mycolicibacterium aurum, entry Cc1cc(CN2CCN(C3C4CC5CC(C4)CC3C5)CC2)c(C)n1-c1ccc(Cl)cc1 (stereo unspecified) . Fill in?
1

Reported Activity for Mycolicibacterium aurum, given Cc1c(CN2CCN(C)CC2)cc(-c2ccc(Cl)cc2)n1-c1ccc(Cl)cc1 ?
2

====

# METHOD_NOTES: Cytotoxic activity against human THP1 cells assessed as reduction in cell viability incubated for 48 hrs by […] based assay
# Design: species or system THP-1
# MEASUREMENT_PARAMETERS: THP1 cells
Catalogue of GI50 at 48 h values
Reply numerically in µg/mL, unit not repeated.

Below, 5 compounds whose answers are already recorded.
- COMPOUND: "Cc1ccc(CNCc2cc(C)n(-c3ccc(Cl)cc3)c2C)cc1"
  UNIT_TAG: "µg/mL"
  GI50 at 48 h: 6.1
- COMPOUND: "Cc1cc(CNCCc2ccccc2)c(C)n1-c1ccc(Cl)cc1"
  UNIT_TAG: "µg/mL"
  GI50 at 48 h: 7.3
- COMPOUND: "Cc1cc(CNOCc2ccccc2)c(C)n1-c1ccc(Cl)cc1"
  UNIT_TAG: "µg/mL"
  GI50 at 48 h: 67
- COMPOUND: "Cc1cc(CNC2C3CC4CC(C3)CC2C4)c(C)n1-c1ccc(Cl)cc1 (configuration not stated)"
  UNIT_TAG: "µg/mL"
  GI50 at 48 h: 15
- COMPOUND: "Cc1cc(CN2CCN(C3C4CC5CC(C4)CC3C5)CC2)c(C)n1-c1ccccc1F (configuration not stated)"
  UNIT_TAG: "µg/mL"
  GI50 at 48 h: 26

Find the recorded GI50 at 48 h belonging to Cc1cc(CN2CCN(C3CCCCC3)CC2)c(C)n1-c1ccc(Cl)cc1 and report it.
16

Please look up its GI50 at 48 h: Cc1c(CN2CCN(C3C4CC5CC(C4)CC3C5)CC2)cc(-c2ccc(Cl)cc2)n1-c1ccc(Cl)cc1 (configuration not stated)
500

====

# METHOD_NOTES: Cytotoxic activity against human THP1 cells assessed as reduction in cell viability incubated for 48 hrs by […] based assay
# Parameters: species or system THP-1
# MEASUREMENT_PARAMETERS: THP1 cells
Assign labels as follows, please: 1 (yes) for GI50 at 48 h below 30 µg/mL; 0 (no) for GI50 at 48 h equal to or exceeding 30 µg/mL.

- COMPOUND: "Cc1cc(CNCc2ccccc2)c(C)n1-c1ccc(Cl)cc1"
  CLASS_ASSIGNMENT: "1 (yes)"
- COMPOUND: "Cc1c(CNCc2ccccc2)cc(-c2ccc(Cl)cc2)n1-c1ccc(Cl)cc1"
  CLASS_ASSIGNMENT: "0 (no)"
- COMPOUND: "Cc1cc(CNCc2ccc(F)cc2)c(C)n1-c1ccc(Cl)cc1"
  CLASS_ASSIGNMENT: "1 (yes)"
- COMPOUND: "Cc1cccc(-n2c(C)cc(CN3CCN(C4C5CC6CC(C5)CC4C6)CC3)c2C)c1 (stereo not given)"
  CLASS_ASSIGNMENT: "0 (no)"
- COMPOUND: "Cc1cc(CNOCc2ccccc2)c(C)n1-c1ccc(F)cc1"
  CLASS_ASSIGNMENT: "0 (no)"
- COMPOUND: "Cc1cc(CNCc2ccc(Cl)cc2)c(C)n1-c1ccc(Cl)cc1"
  CLASS_ASSIGNMENT: "1 (yes)"
- COMPOUND: "Cc1cc(CN2CCN(C34CC5CC(CC(C5)C3)C4)CC2)c(C)n1-c1ccc(Cl)cc1"
  CLASS_ASSIGNMENT: "1 (yes)"
- COMPOUND: "Cc1cc(CNCc2ccccc2)c(C)n1-c1ccc(F)cc1"
  CLASS_ASSIGNMENT: "1 (yes)"
- COMPOUND: "Cc1c(CN2CCN(c3ccccc3)CC2)cc(-c2ccc(Cl)cc2)n1-c1ccc(Cl)cc1"
  CLASS_ASSIGNMENT: "0 (no)"
- COMPOUND: "Cc1c(CN2CCN(C34CC5CC(CC(C5)C3)C4)CC2)cc(-c2ccc(Cl)cc2)n1-c1ccc(Cl)cc1"
  CLASS_ASSIGNMENT: "0 (no)"

is_below(GI50 at 48 h, 30 µg/mL) for Cc1c(CN2CCN(c3ccccc3)CC2)c(CN2CCN(c3ccccc3)CC2)c(C)n1-c1ccc(Cl)cc1 ?
0 (no)

Hi there! Is GI50 at 48 h for Cc1c(CN2CCN(C)CC2)cc(-c2ccc(Cl)cc2)n1-c1ccc(Cl)cc1 below 30 µg/mL, do you know?
1 (yes)

Strictly below 30 µg/mL in GI50 at 48 h? Cc1c(CNC2CCCCC2)cc(-c2ccc(Cl)cc2)n1-c1ccc(Cl)cc1
1 (yes)

# TODO verify GI50 at 48 h < 30 µg/mL strictly for this compound: Cc1cc(/C=N\OCc2ccccc2)c(C)n1-c1ccc(Cl)cc1
0 (no)

Item Cc1cc(CNC2CCCCC2)c(C)n1-c1ccc(Cl)cc1 : GI50 at 48 h beneath 30 µg/mL, strictly?
1 (yes)

Does the reported GI50 at 48 h of the following compound sit strictly below 30 µg/mL? Cc1c(CN2CCN(C3CC4CCC3C4)CC2)cc(-c2ccc(Cl)cc2)n1-c1ccc(Cl)cc1 (mixture of isomers)
0 (no)

Below 30 µg/mL on GI50 at 48 h? Entry Cc1cc(CN2CCN(c3ccccc3)CC2)c(C)n1-c1ccc(Cl)cc1
1 (yes)
